Hi there, I'd appreciate the recorded AC50 for every entry that follows.
SYSTEM: Muscarinic acetylcholine receptor M2 (Homo sapiens); further: assay procedure not described here
Sequence (P08172 whole entry): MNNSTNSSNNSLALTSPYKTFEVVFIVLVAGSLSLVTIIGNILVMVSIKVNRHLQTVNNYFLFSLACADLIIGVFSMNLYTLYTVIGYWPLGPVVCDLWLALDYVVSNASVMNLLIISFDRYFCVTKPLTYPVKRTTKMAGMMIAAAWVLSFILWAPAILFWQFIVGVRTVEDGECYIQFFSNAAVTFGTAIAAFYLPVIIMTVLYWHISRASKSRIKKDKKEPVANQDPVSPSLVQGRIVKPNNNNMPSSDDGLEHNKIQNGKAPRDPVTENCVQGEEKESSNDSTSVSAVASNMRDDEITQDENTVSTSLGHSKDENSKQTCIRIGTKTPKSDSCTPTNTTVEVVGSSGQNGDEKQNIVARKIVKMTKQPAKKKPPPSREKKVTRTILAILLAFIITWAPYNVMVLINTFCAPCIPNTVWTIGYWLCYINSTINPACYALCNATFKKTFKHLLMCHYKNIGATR
Assay type: functional, cell-based

Consider the reported AC50 for these compounds:
| COMPOUND | SYSTEM | AC50 |
| --- | --- | --- |
| NC1=NC(=O)C(c2ccccc2)O1 (stereo not drawn) [PEMOLINE] | Muscarinic acetylcholine receptor M2 (Homo sapiens) | > 10 µM |
| CN(C)[C@@H]1C(O)=C(C(N)=O)C(=O)[C@@]2(O)C(O)=C3C(=O)c4c(O)ccc(Cl)c4[C@@H](O)[C@H]3C[C@@H]12 [DEMECLOCYCLINE] | Muscarinic acetylcholine receptor M2 (Homo sapiens) | > 10 µM |
| O=C(C[S+]([O-])C(c1ccccc1)c1ccccc1)NO (stereo not drawn) | Muscarinic acetylcholine receptor M2 (Homo sapiens) | > 30 µM |
| CCCOc1ccc(C(=O)OCCN(CC)CC)cc1N [PROPARACAINE] | Muscarinic acetylcholine receptor M2 (Homo sapiens) | > 30 µM |
| NC(=O)c1ncn([C@@H]2O[C@H](CO)[C@@H](O)[C@H]2O)c1O [MIZORIBINE] | Muscarinic acetylcholine receptor M2 (Homo sapiens) | > 30 µM |
| CC(C(=O)O)c1ccc(N2CC=CC2)c(Cl)c1 (stereo not drawn) [PIRPROFEN] | Muscarinic acetylcholine receptor M2 (Homo sapiens) | > 10 µM |

Each of the following entries comes with a recorded value; kindly state AC50 for each.
1. C=C1CC[C@@]2(O)[C@H]3Cc4ccc(O)c5c4[C@@]2(CCN3CC2CC2)[C@H]1O5
2. C[C@H]1C[C@@H]2[C@H]([C@@H](O)C[C@@]3(C)[C@H]2CC[C@]3(O)C(=O)CO)[C@@]2(C)C=CC(=O)C=C12 [METHYLPREDNISOLONE]
3. CCC(C(=O)O)c1ccc(CC(C)C)cc1 (stereo not drawn) [BUTIBUFEN]
4. CC[C@]1(O)C[C@@H]2CN(CCc3c([nH]c4ccccc34)[C@@](C(=O)OC)(c3cc4c(cc3OC)N(C)[C@H]3[C@@](O)(C(N)=O)[C@H](O)[C@]5(CC)C=CCN6CC[C@]43[C@@H]65)C2)C1 [VINDESINE]
5. C#C[C@]1(O)CC[C@H]2[C@@H]3CCC4=CCCC[C@@H]4[C@H]3CC[C@@]21C [LYNESTRENOL]

Response line:
["> 30 µM", "> 10 µM", "> 30 µM", "> 30 µM", "> 30 µM"]
